target: Human LDHA (Homo sapiens (Human), UniProt P00338); experiment: human LDHA primary biochemical assay; conditions: biochemical LDHA inhibitory activity, assay of Example 1; activity level classes defined in nM
# IC50 listing for each entry below

Worked cases, answers included:
compound_structure_string=CC(C)Cc1ccc(-c2cc(-c3nn(-c4nc(C(=O)O)cs4)c(CC4CC4)c3Cc3ccc(S(N)(=O)=O)c(F)c3)ccc2F)cc1 meas_value="100 to 1000 nM"
compound_structure_string=Cc1cc(C#Cc2cccc(-c3nn(-c4nc(C(=O)O)cs4)c(CCC4CC4)c3Cc3ccc(S(N)(=O)=O)c(F)c3)c2)cs1 meas_value="100 to 1000 nM"
compound_structure_string=Cc1ncc(-c2cccc(-c3nn(-c4nc(C(=O)O)cs4)c(CC4CC4)c3Cc3ccc(S(N)(=O)=O)c(F)c3)c2)cn1 meas_value="< 100 nM"
compound_structure_string=Cc1ccc(C#Cc2cccc(-c3nn(-c4nc(B(O)O)cs4)c(CC4CC4)c3Cc3ccc(S(N)(=O)=O)c(F)c3)c2)s1 meas_value="1000 to 57000 nM"
compound_structure_string=NS(=O)(=O)c1ccc(Cc2c(-c3ccc(F)c(-c4ccc(C(F)(F)C(F)(F)F)cc4)c3)nn(-c3nc(C(=O)O)cs3)c2CC2CC2)cc1F meas_value="100 to 1000 nM"

Sample `Cc1cc(C#Cc2cccc(-c3nn(-c4nc(C(=O)O)cs4)c(CC4CC4)c3Cc3ccc(S(N)(=O)=O)c(F)c3)c2)c(C)s1` — what was its IC50?
100 to 1000 nM

Same for `Cc1ccc(C#Cc2cccc(-c3nn(-c4nc(C(=O)O)cs4)c(CC4CC4)c3Cc3ccc(S(N)(=O)=O)c(F)c3)c2)o1`
< 100 nM

Same for `COc1ccc(-c2cc(-c3nn(-c4nc(C(=O)O)cs4)c(CC4CC4)c3Cc3ccc(S(N)(=O)=O)c(F)c3)ccc2F)cc1C`
< 100 nM

Same for `Cc1ccc(-c2ccc(-c3cc(-c4nn(-c5nc(C(=O)O)cs5)c(CC5CC5)c4Cc4ccc(S(N)(=O)=O)c(F)c4)ccc3F)cc2)s1`
100 to 1000 nM

Data provenance is patent US10954228B2.
